molecular target: UniProtKB P04798; assay: Inhibition of recombinant human CYP1A1 expressed in yeast microsomal membranes at 10 uM by fluorescence assay relative to control; type: cell membranes
experimental_endpoint: inhibition at 10 µM (%)

[[record]]
molecule = "CC(C)=CCc1cc(C2Oc3c(ccc(O)c3CC=C(C)C)C(=O)C2O)ccc1O (centres undefined)"
assay_value = 31.4


a. O=c1cc(-c2ccccc2)oc2c1ccc1ccccc12
b. COc1ccc2c(c1)OC1c3ccc(O)cc3OCC21 (centres undefined)
c. O=C(/C=C/c1ccc(O[C@H]2O[C@@H](CO)[C@H](O)[C@@H](O)[C@@H]2O[C@@H]2OC[C@](O)(CO)[C@H]2O)cc1)c1ccc(O)cc1O
Problem: # ascending order, key=inhibition at 10 µM Order the labels as requested and list them.
Result: c, b, a

###

Target: Cytochrome P450 1A2 (Homo sapiens)
Sequence (P05177 whole entry): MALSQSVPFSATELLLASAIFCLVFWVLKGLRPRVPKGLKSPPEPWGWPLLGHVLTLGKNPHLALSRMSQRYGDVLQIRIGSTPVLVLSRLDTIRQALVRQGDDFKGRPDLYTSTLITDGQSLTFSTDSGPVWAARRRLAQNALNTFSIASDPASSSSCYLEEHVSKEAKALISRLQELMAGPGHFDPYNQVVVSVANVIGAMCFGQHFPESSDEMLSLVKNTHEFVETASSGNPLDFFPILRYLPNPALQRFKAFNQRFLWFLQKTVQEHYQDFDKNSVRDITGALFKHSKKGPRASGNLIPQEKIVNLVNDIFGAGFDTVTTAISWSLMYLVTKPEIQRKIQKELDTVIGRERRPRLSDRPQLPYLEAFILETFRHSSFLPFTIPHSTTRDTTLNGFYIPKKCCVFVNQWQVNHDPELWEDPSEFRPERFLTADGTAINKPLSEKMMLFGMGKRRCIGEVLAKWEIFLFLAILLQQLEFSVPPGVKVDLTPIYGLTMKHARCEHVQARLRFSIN
Test: Inhibition of human CYP1A2 expressed in HEK293 cells by fluorescence assay
Format: ADME, cell-based
experimental_endpoint: IC50

Problem: # query: IC50 | item CC(C)=CCc1cc(C2CC(=O)c3ccc(O)c(CC=C(C)C)c3O2)ccc1O (stereo unspecified) | system: Cytochrome P450 1A2 (Homo sapiens)
Result: > 20 µM

###

target: UniProtKB P04798; assay: Inhibition of human CYP1A expressed in HEK293 cells by fluorescence assay; assay type: ADME, cell-based
experimental_endpoint: IC50

Problem: # query: IC50 | item CC(C)=CCc1cc(C2CC(=O)c3ccc(O)c(CC=C(C)C)c3O2)ccc1O (stereo unspecified) | system: UniProtKB P04798
Result: > 20 µM

###

target: Cytochrome P450 3A4 (Homo sapiens, UniProt P08684); assay: Inhibition of recombinant human CYP3A4 expressed in yeast microsomal membranes by fluorescence assay; type: ADME, cell membranes, Microsomal Membrane
Sequence (P08684 whole entry): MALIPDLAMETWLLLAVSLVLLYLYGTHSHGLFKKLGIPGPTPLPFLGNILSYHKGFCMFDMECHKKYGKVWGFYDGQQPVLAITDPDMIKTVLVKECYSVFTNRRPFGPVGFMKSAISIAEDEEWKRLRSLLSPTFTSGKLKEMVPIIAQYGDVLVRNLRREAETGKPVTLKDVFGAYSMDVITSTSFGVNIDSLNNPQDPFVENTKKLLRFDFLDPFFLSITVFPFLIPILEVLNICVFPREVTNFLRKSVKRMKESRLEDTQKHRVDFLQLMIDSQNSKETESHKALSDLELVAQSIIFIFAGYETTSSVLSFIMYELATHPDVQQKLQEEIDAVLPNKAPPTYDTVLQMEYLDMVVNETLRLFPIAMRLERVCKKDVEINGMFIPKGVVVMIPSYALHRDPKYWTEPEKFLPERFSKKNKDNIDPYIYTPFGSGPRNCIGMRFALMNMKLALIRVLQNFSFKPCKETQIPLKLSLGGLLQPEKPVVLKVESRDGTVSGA
experimental_endpoint: IC50

Problem: What does the data say about its IC50? Entry: CC(C)=CCc1cc(C2CC(=O)c3ccc(O)c(CC=C(C)C)c3O2)ccc1O (stereo unspecified)
Result: > 20 µM

###

molecular target: CYP1B1 (Homo sapiens, UniProt Q16678); test: Inhibition of human CYP1B1 expressed in yeast microsomal membranes at 10 uM using 7-ethoxyresorufin as substrate by fluorescence assay relative to control; format: cell membranes; conditions: probe 7-ethoxyresorufin
Sequence (Q16678 whole entry): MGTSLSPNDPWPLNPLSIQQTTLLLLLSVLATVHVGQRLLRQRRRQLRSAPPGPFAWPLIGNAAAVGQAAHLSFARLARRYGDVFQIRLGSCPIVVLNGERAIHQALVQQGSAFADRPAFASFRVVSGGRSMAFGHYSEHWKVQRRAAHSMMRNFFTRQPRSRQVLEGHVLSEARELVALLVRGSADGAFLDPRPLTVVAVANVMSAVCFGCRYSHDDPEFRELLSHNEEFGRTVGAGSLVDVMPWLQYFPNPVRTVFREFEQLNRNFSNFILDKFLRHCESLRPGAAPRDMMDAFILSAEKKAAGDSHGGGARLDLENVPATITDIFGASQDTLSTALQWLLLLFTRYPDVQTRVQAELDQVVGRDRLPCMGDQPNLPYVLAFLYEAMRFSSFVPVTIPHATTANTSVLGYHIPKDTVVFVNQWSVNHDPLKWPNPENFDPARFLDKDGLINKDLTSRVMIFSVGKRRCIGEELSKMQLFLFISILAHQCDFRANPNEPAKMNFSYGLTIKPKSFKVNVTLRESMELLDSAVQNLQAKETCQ
experimental_endpoint: inhibition at 10 µM (%)

For orientation, consider the following solved cases.
[[record]]
compound = "CC(C)=CCc1cc(C2Oc3c(ccc(O)c3CC=C(C)C)C(=O)C2O)ccc1O (configuration not stated)"
experimental_endpoint = "inhibition at 10 µM"
readout_unit = "%"
assay_value = 7.5

[[record]]
compound = "O=C(/C=C/c1ccc(O)cc1)c1ccc(O)cc1O [ISOLIQUIRITIGENIN]"
experimental_endpoint = "inhibition at 10 µM"
readout_unit = "%"
assay_value = 3.1


A. CC1(C)C=Cc2c(ccc3c2OC[C@@H](c2ccc(O)cc2O)C3)O1 [GLABRIDIN]
B. COc1ccc(-c2coc3cc(O)ccc3c2=O)cc1 [FORMONONETIN]
C. O=C1C[C@@H](c2ccc(O)cc2)Oc2cc(O)ccc21 [LIQUIRTIGENIN]
Problem: List from greatest to least inhibition at 10 µM. Order the labels as requested and list them.
Result: C, A, B

P. CC(C)=CCc1cc(C2CC(=O)c3ccc(O)c(CC=C(C)C)c3O2)ccc1O (configuration not stated)
Q. CC1(C)[C@@H](O)CC[C@]2(C)[C@H]3C(=O)C=C4[C@@H]5C[C@@](C)(C(=O)O)CC[C@]5(C)CC[C@@]4(C)[C@]3(C)CC[C@@H]12 [ENOXOLONE]
R. COc1ccc2c(c1)OC1c3ccc(O)cc3OCC21 (configuration not stated)
S. COc1ccc(C2COc3c(ccc4c3C=CC(C)(C)O4)C2)c(O)c1 (configuration not stated)
T. O=C(/C=C/c1ccc(O[C@H]2O[C@@H](CO)[C@H](O)[C@@H](O)[C@@H]2O[C@@H]2OC[C@](O)(CO)[C@H]2O)cc1)c1ccc(O)cc1O
Problem: # ascending order, key=inhibition at 10 µM Order the labels as requested and list them.
Result: T, Q, S, P, R

Where do the numbers come from? From ChEMBL document CHEMBL4184166.
